Assay: AUC (0 to t) in Sprague-Dawley rat at 10 mg/kg, po measured up to 24 hrs by LC-MS/MS analysis
Assay type: ADME, organism-based
Parameters: time < 24 hrs, dose 10 mg/kg, route po
Conditions: in vivo
READOUT NAME: AUC(0-t) at 24 h (ng·h/mL)
Quick reminder: number only, in ng·h/mL, skip the unit.

(Q) I am curious: what AUC(0-t) at 24 h value has been reported for Cc1cn(C2=CC[C@H]3[C@@H]4CC=C5C[C@@H](NC(=O)c6ccncc6)CC[C@]5(C)[C@H]4CC[C@]23C)cn1 ?
(A) 24800

(Q) And the next one, C[C@]12CC[C@H](NC(=O)c3ccncc3)CC1=CC[C@@H]1[C@@H]2CC[C@]2(C)C(n3ccnc3)=CC[C@@H]12 ?
(A) 28800

(Q) And the next one, Cc1cn(C2=CC[C@H]3[C@@H]4CC=C5C[C@@H](NC(=O)c6ccnnc6)CC[C@]5(C)[C@H]4CC[C@]23C)cn1 ?
(A) 5620

---

Molecular target: UniProt P10275
Assay: Induction of AR degradation in human LNCap cells incubated for 24 hrs by sandwich ELISA analysis
Assay type: cell-based
Criterion: DC50 strictly under 4 µM. Met: YES. Not met: NO.

Solved cases (8 shown):
C[C@]12CC[C@H](NC(=O)c3ccncc3)CC1=CC[C@@H]1[C@@H]2CC[C@]2(C)C(n3cnc4ccccc43)=CC[C@@H]12 | YES
Cc1cncc(C2=CC[C@H]3[C@@H]4CC=C5C[C@@H](NC(=O)c6ccnnc6)CC[C@]5(C)[C@H]4CC[C@]23C)c1 | NO
Cc1cn(C2=CC[C@H]3[C@@H]4CC=C5C[C@@H](NC(=O)c6ccncc6)CC[C@]5(C)[C@H]4CC[C@]23C)cn1 | YES
C[C@]12CC[C@H](NC(=O)c3ccnnc3)CC1=CC[C@@H]1[C@@H]2CC[C@]2(C)C(n3ccnc3)=CC[C@@H]12 | YES
COc1cncc(C2=CC[C@H]3[C@@H]4CC=C5C[C@@H](NC(=O)c6ccnnc6)CC[C@]5(C)[C@H]4CC[C@]23C)c1 | NO
C[C@]12CC[C@H](NC(=O)c3ccnnc3)CC1=CC[C@@H]1[C@@H]2CC[C@]2(C)C(n3ccnn3)=CC[C@@H]12 | NO
Cc1cn(C2=CC[C@H]3[C@@H]4CC=C5C[C@@H](NC(=O)c6ccnnc6)CC[C@]5(C)[C@H]4CC[C@]23C)cn1 | YES
Cc1cn(C2=CC[C@H]3[C@@H]4CC=C5C[C@@H](NC(=O)c6cccnc6)CC[C@]5(C)[C@H]4CC[C@]23C)cn1 | YES

Next, consider the following compound.
(Q) Lab log: compare recorded DC50 with 4 µM; is it strictly lower for C[C@]12CC[C@H](NC(=O)c3ccnnc3)CC1=CC[C@@H]1[C@@H]2CC[C@]2(C)C(n3cnc4ccccc43)=CC[C@@H]12 ?
(A) NO

---

Molecular target: UniProt:Q12809
Sequence (Q12809 whole entry): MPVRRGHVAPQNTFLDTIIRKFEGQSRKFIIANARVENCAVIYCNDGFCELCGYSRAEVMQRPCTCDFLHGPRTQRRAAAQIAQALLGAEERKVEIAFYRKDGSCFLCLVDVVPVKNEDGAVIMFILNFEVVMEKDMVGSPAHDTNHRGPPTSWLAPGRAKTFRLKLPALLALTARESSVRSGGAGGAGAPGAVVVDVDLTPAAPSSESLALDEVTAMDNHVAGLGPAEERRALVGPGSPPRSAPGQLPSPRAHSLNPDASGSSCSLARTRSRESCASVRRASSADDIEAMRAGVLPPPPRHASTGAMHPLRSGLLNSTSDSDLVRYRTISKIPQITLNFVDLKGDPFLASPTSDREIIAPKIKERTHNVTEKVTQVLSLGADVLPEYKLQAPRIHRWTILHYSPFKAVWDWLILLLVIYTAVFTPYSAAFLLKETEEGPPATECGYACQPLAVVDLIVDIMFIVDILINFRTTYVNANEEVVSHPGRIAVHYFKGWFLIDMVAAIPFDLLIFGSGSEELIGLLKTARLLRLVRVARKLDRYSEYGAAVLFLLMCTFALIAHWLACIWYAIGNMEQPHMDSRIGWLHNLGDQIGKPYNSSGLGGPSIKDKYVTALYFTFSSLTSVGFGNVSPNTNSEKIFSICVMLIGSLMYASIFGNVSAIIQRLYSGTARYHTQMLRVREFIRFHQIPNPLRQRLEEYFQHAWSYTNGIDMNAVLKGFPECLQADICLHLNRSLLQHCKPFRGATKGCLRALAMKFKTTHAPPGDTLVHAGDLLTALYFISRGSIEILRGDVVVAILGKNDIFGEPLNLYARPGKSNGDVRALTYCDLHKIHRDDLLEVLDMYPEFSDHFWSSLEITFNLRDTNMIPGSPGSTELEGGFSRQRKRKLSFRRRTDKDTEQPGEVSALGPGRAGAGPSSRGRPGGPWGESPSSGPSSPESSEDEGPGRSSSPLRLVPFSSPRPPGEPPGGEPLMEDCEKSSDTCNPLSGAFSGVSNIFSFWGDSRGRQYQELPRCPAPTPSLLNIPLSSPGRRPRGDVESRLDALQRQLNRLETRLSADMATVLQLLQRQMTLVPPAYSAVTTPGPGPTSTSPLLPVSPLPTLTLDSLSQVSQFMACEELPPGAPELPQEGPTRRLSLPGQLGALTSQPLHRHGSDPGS
Assay: Inhibition of hERG potassium channel at -80 mV holding potential incubated for 3 mins by automated patch clamp method
Quick reference: IC50 of the listed items.
Quick reminder: number only, in µM, skip the unit.

Cc1cn(C2=CC[C@H]3[C@@H]4CC=C5C[C@@H](NC(=O)c6ccncc6)CC[C@]5(C)[C@H]4CC[C@]23C)cn1 | 6.47

(Q) I am curious: what IC50 value has been reported for C[C@]12CC[C@H](NC(=O)c3ccncc3)CC1=CC[C@@H]1[C@@H]2CC[C@]2(C)C(n3ccnc3)=CC[C@@H]12 ?
(A) 4.99

---

Target: Androgen receptor (Homo sapiens, UniProt P10275)
Experiment: Antagonist activity at DHT-induced Androgen receptor transcriptional activity in human HEK293 cells measured after 24 hrs by Steady-Glo reagent based assay
READOUT NAME: pIC50
pIC50 (log units): -log10 of the concentration in mol/L.

Cc1cncc(C2=CC[C@H]3[C@@H]4CC=C5C[C@@H](NC(=O)c6ccnnc6)CC[C@]5(C)[C@H]4CC[C@]23C)c1 | 5.78
C[C@]12CC[C@H](NC(=O)c3ccncc3)CC1=CC[C@@H]1[C@@H]2CC[C@]2(C)C(n3cnc4ccccc43)=CC[C@@H]12 | 5.81
Cc1cn(C2=CC[C@H]3[C@@H]4CC=C5C[C@@H](NC(=O)c6ccnnc6)CC[C@]5(C)[C@H]4CC[C@]23C)cn1 | 6.61
Cc1cn(C2=CC[C@H]3[C@@H]4CC=C5C[C@@H](NC(=O)c6cccnc6)CC[C@]5(C)[C@H]4CC[C@]23C)cn1 | 5.89

(Q) I am curious: what pIC50 value has been reported for C[C@]12CC[C@H](NC(=O)c3ccnnc3)CC1=CC[C@@H]1[C@@H]2CC[C@]2(C)C(n3cnc4ccccc43)=CC[C@@H]12 ?
(A) 5.87

(Q) And the next one, Cc1cn(C2=CC[C@H]3[C@@H]4CC=C5C[C@@H](NC(=O)c6ccncc6)CC[C@]5(C)[C@H]4CC[C@]23C)cn1 ?
(A) 6.61

---

Target: Steroid 17-alpha-hydroxylase/17,20 lyase (Homo sapiens, UniProt P05093)
Sequence (P05093 whole entry): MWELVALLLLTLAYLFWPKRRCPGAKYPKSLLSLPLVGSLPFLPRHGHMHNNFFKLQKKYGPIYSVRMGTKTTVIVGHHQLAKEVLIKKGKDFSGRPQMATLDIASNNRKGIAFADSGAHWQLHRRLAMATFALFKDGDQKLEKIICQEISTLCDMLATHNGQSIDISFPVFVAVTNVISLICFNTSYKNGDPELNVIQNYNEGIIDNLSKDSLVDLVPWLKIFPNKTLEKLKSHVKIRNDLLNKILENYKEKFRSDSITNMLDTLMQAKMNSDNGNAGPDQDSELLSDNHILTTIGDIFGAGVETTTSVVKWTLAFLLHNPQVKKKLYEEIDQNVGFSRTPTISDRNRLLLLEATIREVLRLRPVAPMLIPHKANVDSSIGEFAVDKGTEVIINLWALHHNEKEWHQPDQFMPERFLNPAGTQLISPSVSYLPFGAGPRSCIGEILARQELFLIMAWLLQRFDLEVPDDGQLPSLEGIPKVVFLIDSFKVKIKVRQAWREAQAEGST
Assay: Inhibition of human recombinant CYP17A1 incubated for 5 mins in presence of NADPH by LC-MS/MS analysis
READOUT NAME: IC50 (µM)
Quick reminder: number only, in µM, skip the unit.

C[C@]12CC[C@H](O)CC1=CC[C@@H]1[C@@H]2CC[C@]2(C)C(c3cccnc3)=CC[C@@H]12 | 0.002
C[C@]12CC[C@H](O)CC1=CC[C@@H]1[C@@H]2CC[C@]2(C)C(n3cnc4ccccc43)=CC[C@@H]12 | 0.016

Field: next compound
(Q) I am curious: what IC50 value has been reported for Cc1cn(C2=CC[C@H]3[C@@H]4CC=C5C[C@@H](NC(=O)c6ccncc6)CC[C@]5(C)[C@H]4CC[C@]23C)cn1 ?
(A) 2.59

---

Test: Terminal half life in Sprague-Dawley rat at 10 mg/kg, po measured up to 24 hrs by LC-MS/MS analysis
Format: ADME, organism-based
Conditions: in vivo, read-out: beta t1/2 (converted)
READOUT NAME: half-life (min)
Quick reminder: number only, in min, skip the unit.

Past entries and their recorded results:
Cc1cn(C2=CC[C@H]3[C@@H]4CC=C5C[C@@H](NC(=O)c6ccncc6)CC[C@]5(C)[C@H]4CC[C@]23C)cn1 | 168
Cc1cn(C2=CC[C@H]3[C@@H]4CC=C5C[C@@H](NC(=O)c6ccnnc6)CC[C@]5(C)[C@H]4CC[C@]23C)cn1 | 215

(Q) I am curious: what half-life value has been reported for C[C@]12CC[C@H](NC(=O)c3ccncc3)CC1=CC[C@@H]1[C@@H]2CC[C@]2(C)C(n3ccnc3)=CC[C@@H]12 ?
(A) 600

---

Target: Androgen receptor (Homo sapiens)
Sequence (P10275 whole entry): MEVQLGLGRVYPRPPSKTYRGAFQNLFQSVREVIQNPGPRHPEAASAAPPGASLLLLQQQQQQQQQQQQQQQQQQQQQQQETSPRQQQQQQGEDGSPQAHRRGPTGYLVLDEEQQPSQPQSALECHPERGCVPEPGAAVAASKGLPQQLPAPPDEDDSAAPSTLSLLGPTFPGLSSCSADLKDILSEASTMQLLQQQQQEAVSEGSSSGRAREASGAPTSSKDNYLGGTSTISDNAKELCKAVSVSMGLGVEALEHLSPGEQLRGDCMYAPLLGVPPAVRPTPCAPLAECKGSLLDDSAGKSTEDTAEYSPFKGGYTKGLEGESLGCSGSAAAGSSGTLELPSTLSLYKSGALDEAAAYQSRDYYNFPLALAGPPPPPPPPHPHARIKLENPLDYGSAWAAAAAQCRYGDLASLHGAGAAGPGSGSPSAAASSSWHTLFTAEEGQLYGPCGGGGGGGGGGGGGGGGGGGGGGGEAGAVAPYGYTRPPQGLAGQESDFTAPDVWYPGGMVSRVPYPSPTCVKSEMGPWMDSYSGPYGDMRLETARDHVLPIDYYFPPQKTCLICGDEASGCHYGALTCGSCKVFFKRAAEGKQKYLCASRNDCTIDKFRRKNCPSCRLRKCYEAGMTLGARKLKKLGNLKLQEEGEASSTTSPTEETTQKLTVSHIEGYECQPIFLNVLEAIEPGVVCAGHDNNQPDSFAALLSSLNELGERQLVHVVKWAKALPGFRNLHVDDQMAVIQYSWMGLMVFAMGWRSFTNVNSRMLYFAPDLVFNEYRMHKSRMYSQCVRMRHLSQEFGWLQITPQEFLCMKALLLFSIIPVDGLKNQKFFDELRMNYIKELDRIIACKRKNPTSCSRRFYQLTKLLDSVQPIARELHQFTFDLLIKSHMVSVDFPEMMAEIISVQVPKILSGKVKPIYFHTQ
Experiment: Antagonist activity at DHT-induced Androgen receptor transcriptional activity in human HEK293 cells measured after 24 hrs by Steady-Glo reagent based assay
READOUT NAME: IC50 (nM)
Quick reminder: number only, in nM, skip the unit.

(Q) I am curious: what IC50 value has been reported for C[C@]12CC[C@H](NC(=O)c3ccncc3)CC1=CC[C@@H]1[C@@H]2CC[C@]2(C)C(n3ccnc3)=CC[C@@H]12 ?
(A) 511

(Q) And the next one, C[C@]12CC[C@H](NC(=O)c3ccnnc3)CC1=CC[C@@H]1[C@@H]2CC[C@]2(C)C(n3ccnc3)=CC[C@@H]12 ?
(A) 981

(Q) And the next one, C[C@]12CC[C@H](NC(=O)c3ccnnc3)CC1=CC[C@@H]1[C@@H]2CC[C@]2(C)C(n3ccnn3)=CC[C@@H]12 ?
(A) 9140

(Q) And the next one, COc1cncc(C2=CC[C@H]3[C@@H]4CC=C5C[C@@H](NC(=O)c6ccnnc6)CC[C@]5(C)[C@H]4CC[C@]23C)c1 ?
(A) 914
